assay: BET inhibitor-based combinations targeting novel dependencies in MECOM-rearranged (r) AML: MV-4-11 cell line (AID 2202233); conditions: MV-4-11 AML viability, CellTiter-Glo luminescence, 48 h; series mostly up to 46 µM; note: nearly all actives have a fitted effect of over 45% in size
Results filed as inconclusive are left out. The source made the active and inactive calls. Calls come from the whole dose curve; as a rule, active = well fitted inhibition curve with a large enough effect; inconclusive = small, poorly fitted or top-dose-only effect; inactive = no such curve, though single readings can be large or run the other way.
# output must be one of 1.0 for active, 0.0 for inactive

What was the test verdict on `CC[C@@]1(O)C(=O)OCc2c1cc1n(c2=O)Cc2cc3ccccc3nc2-1` ?
1.0

Assay result, entry `O=C(Nc1ccncc1)C(=O)c1cn(Cc2ccc(Cl)cc2)c2ccccc12` — outcome?
1.0

----------
target: Cellular tumor antigen p53 (Homo sapiens); assay: Primary qHTS for small molecule compounds that upregulate eGFP-tagged delta133p53alpha (in N-terminal) cells. (AID 2060322); conditions: NCI-H358 eGFP-delta133p53alpha fluorescence, 24 h; active compounds read high;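 note: cells pre-induced with doxycycline then dosed without doxycycline; 0% = DMSO vehicle and 100% = reference activator; nearly all actives have a fitted effect of over 75% in size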
Records with an inconclusive call do not appear.
outcome-measure: activation (%)
Numeric only. Scale: %

The examples below pair each entry with its known result.
{"compound": "Cc1ncc(OC[C@@]2(c3cccc(F)c3)C[C@H]2C(=O)Nc2ccc(F)cn2)c(C)n1", "target-or-system": "Cellular tumor antigen p53 (Homo sapiens)", "activation / %": -13.1}
{"compound": "Cc1ccc(Cl)c(O)c1", "target-or-system": "Cellular tumor antigen p53 (Homo sapiens)", "activation / %": 5.08}
{"compound": "CCN1CC2(COC)C3[C@@H](OC)C4C1C3(C1C[C@]3(O)[C@H](OC(=O)c5ccccc5)C1[C@]4(OC(C)=O)[C@@H](O)[C@@H]3OC)[C@H](OC)C[C@H]2O (some centres undefined)", "target-or-system": "Cellular tumor antigen p53 (Homo sapiens)", "activation / %": 8.33}
{"compound": "O=C(OC[C@H]1O[C@@H](Oc2ccc(O)cc2CO)[C@H](O)[C@@H](O)[C@@H]1O)c1ccccc1", "target-or-system": "Cellular tumor antigen p53 (Homo sapiens)", "activation / %": 28.6}

State its activation for this compound: `COc1cc(OC)c(OC)cc1C=O`
5.76

Supply activation value. Item: C[C@H]1C(=O)O[C@H]2[C@H](O)[C@]34C5OC(=O)[C@]3(O[C@@H]3OC(=O)[C@H](O)C34[C@H](C(C)(C)C)[C@H]5O)C12O (some centres undefined)
-12.2

Read off the recorded activation for `CCOc1ccc(Oc2ccc(OCc3cc(F)ccc3F)cc2)c(N)c1`
3.57

Answer with the recorded activation of `C[C@H]1CN(Cc2ccc(CC(=O)N3CCC(Nc4cccc(F)c4)CC3)cc2)CCN1` only.
-12.4

Please indicate activation recorded for `C=C1[C@@H](C)[C@H]2[C@H](Cc3ccccc3)NC(=O)[C@]23[C@H](OC(C)=O)/C=C/[C@](C)(O)C(=O)[C@@H](C)C/C=C/[C@H]3[C@@H]1O`
-8.04
